Target: DRB1*0101 (Homo sapiens, UniProt P01903+P01911, A100R/D57E/F55L/F60I/F76Y/I96L/L162R/M171V/P40L/Q125E/R42F/V115G/Y59C)
Construct: endogenous in cells
Test: Competition binding assay using soluble HLA class II
Where a SMILES comes first, the peptide text is derived from it.
Outcome measure: IC50 (nM)
Numbers only, in nM.

CSCC[C@H](NC(=O)[C@H](CCCNC(=N)N)NC(=O)[C@H](Cc1c[nH]cn1)NC(=O)CN)C(=O)N[C@@H](C)C(=O)N[C@@H](Cc1c[nH]c2ccccc12)C(=O)N[C@@H](CC(=O)O)C(=O)N[C@@H](CCSC)C(=O)N[C@@H](CCSC)C(=O)N[C@@H](CCSC)C(=O)N[C@@H](CC(N)=O)C(=O)N[C@@H](Cc1c[nH]c2ccccc12)C(=O)N[C@@H](CO)C(=O)N1CCC[C@H]1C(=O)N[C@H](C(=O)O)[C@@H](C)O    183
CC[C@H](C)[C@H](NC(=O)[C@H](CC(C)C)NC(=O)[C@H](C)NC(=O)CNC(=O)[C@@H](NC(=O)[C@H](Cc1c[nH]c2ccccc12)NC(=O)[C@@H](NC(=O)[C@H](Cc1ccc(O)cc1)NC(=O)[C@@H](N)CO)[C@@H](C)O)[C@@H](C)O)C(=O)N[C@H](C(=O)N1CCC[C@H]1C(=O)N[C@@H](CS)C(=O)N[C@@H](C)C(=O)N[C@@H](C)C(=O)N[C@@H](CCC(=O)O)C(=O)O)[C@@H](C)O    5.63

Consider the following items and state reported IC50 for each.
1. CC[C@H](C)[C@H](NC(=O)[C@@H](NC(=O)[C@@H](N)[C@@H](C)O)[C@@H](C)O)C(=O)N[C@@H](CCSC)C(=O)N[C@@H](C)C(=O)N[C@@H](CCCCN)C(=O)N[C@@H](CC(N)=O)C(=O)N[C@@H](CCC(=O)O)C(=O)N[C@H](C(=O)N[C@@H](Cc1ccccc1)C(=O)N[C@@H](CS)C(=O)N[C@H](C(=O)N[C@@H](CCC(N)=O)C(=O)N1CCC[C@H]1C(=O)N[C@@H](CCC(=O)O)C(=O)O)C(C)C)C(C)C (H-TTIMAKNEVFCVQPE-OH; N-terminus and C-terminus assumed)
2. CC(C)C[C@H](NC(=O)[C@H](Cc1c[nH]cn1)NC(=O)[C@H](C)NC(=O)[C@@H](NC(=O)[C@H](CCC(N)=O)NC(=O)[C@H](Cc1ccccc1)NC(=O)[C@@H](NC(=O)[C@H](CCC(N)=O)NC(=O)[C@@H]1CCCN1)[C@@H](C)O)C(C)C)C(=O)N[C@@H](Cc1c[nH]cn1)C(=O)N[C@@H](C)C(=O)N1CCC[C@H]1C(=O)N[C@H](C(=O)NCC(=O)N[C@@H](CO)C(=O)O)[C@@H](C)O
3. CC[C@H](C)[C@H](NC(=O)[C@@H]1CCCN1C(=O)[C@H](C)NC(=O)[C@H](CC(C)C)NC(=O)[C@H](CC(C)C)NC(=O)[C@H](CCCNC(=N)N)NC(=O)[C@H](Cc1c[nH]c2ccccc12)NC(=O)CNC(=O)[C@H](CCCCN)NC(=O)[C@@H](N)CO)C(=O)N[C@H](C(=O)N[C@@H](C)C(=O)N[C@@H](Cc1ccc(O)cc1)C(=O)N[C@@H](C)C(=O)N[C@@H](CCC(N)=O)C(=O)O)[C@@H](C)O

Reply:
1: 3730; 2: 22; 3: 0.4
